Below: a set of entries, each annotated with reported Coupled exchange IC50 (5 min; μM).
target: GDP-bound KRAS protein (aa 1-169), containing both G12C and C118A amino acid substitutions (Homo sapiens, UniProt P01116, C118A/G12C)
Sequence (P01116 1-169 isoform P01116-2 G12C/C118A): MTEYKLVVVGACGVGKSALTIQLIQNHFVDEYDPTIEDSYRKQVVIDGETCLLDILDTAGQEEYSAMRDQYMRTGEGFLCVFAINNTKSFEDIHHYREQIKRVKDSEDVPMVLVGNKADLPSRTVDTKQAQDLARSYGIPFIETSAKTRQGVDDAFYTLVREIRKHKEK
experiment: Coupled Nucleotide Exchange Assay
Assay type: biochemical
condition: 5 min compound pre-incubation; SOS-mediated nucleotide exchange, AlphaScreen
Please answer using the number first and the unit second.

molecule	Coupled exchange IC50 (5 min; μM)
C=CC(=O)N1CCN(c2c(C#N)c(=O)n(-c3c(N(C)C)ccnc3C(C)C)c3nc(-c4ccccc4F)c(Cl)cc23)CC1 (single isomer, unassigned) [Example 8.5]	3.26 µM
C=CC(=O)N1CCN(c2c(C#N)c(=O)n(-c3c(C(C)C)ncnc3C(C)C)c3nc(-c4ccccc4F)c(Cl)cc23)CC1	0.07 µM
C=CC(=O)N1CCN(c2c(C#N)c(=O)n(-c3c(C(C)C)ncnc3C(C)C)c3nc(-c4c(N)cccc4F)c(Cl)cc23)CC1	0.13 µM
C=CC(=O)N1CCN(c2c(C#N)c(=O)n(-c3c(C)ccnc3C(C)C)c3nc(-c4ccccc4F)c(Cl)cc23)CC1 [Example 6]	0.17 µM
CC(C)NC/C=C/C(=O)N1CCN(c2c(C#N)c(=O)n(-c3c(C(C)C)ncnc3C(C)C)c3nc(-c4ccccc4F)c(Cl)cc23)CC1	0.44 µM

Given the entry C=CC(=O)N1C[C@H](C)N(c2c(C#N)c(=O)n(-c3c(C)ccnc3C(C)C)c3nc(-c4ccccc4F)c(Cl)cc23)C[C@H]1C (single isomer, unassigned) [Example 7.4] , report its measured Coupled exchange IC50 (5 min; μM).
17.6 µM

What measured Coupled exchange IC50 (5 min; μM) goes with C=CC(=O)N1CCN(c2c(C#N)c(=O)n(-c3c(C(C)C)ccnc3C(C)C)c3nc(-c4ccccc4C)c(F)cc23)CC1 [Example 10] ?
0.94 µM

Name the reported Coupled exchange IC50 (5 min; μM) value associated with the molecule C=CC(=O)N1C[C@H](C)N(c2c(C#N)c(=O)n(-c3c(C)ccnc3C(C)C)c3nc(-c4ccccc4F)c(Cl)cc23)C[C@H]1C (single isomer, unassigned) [Example 7.5]
2.27 µM

What does the record list as Coupled exchange IC50 (5 min; μM) for C=CC(=O)N1CCN(c2c(C#N)c(=O)n(-c3c(C(C)C)ccnc3N(C)C)c3nc(-c4ccccc4F)c(Cl)cc23)CC1 (single isomer, unassigned) [Example 8.7] ?
1.55 µM

# input molecule: C=CC(=O)N1CCN(c2c(C#N)c(=O)n(-c3c(CN(C)C)ccnc3C(C)C)c3nc(-c4ccccc4F)c(Cl)cc23)CC1 [Example 2.2] ; wanted: its Coupled exchange IC50 (5 min; μM)
5.71 µM

Which Coupled exchange IC50 (5 min; μM) is reported for this molecule? C=CC(=O)N1[C@H](C)CN(c2c(C#N)c(=O)n(-c3c(C)ccnc3C(C)C)c3nc(-c4ccccc4F)c(Cl)cc23)C[C@@H]1C [Example 7.3]
0.18 µM

Need Coupled exchange IC50 (5 min; μM), item C=CC(=O)N1CCN(c2c(C#N)c(=O)n(-c3c(C(C)C)ccnc3C(C)C)c3nc(-c4ccccc4F)c(Cl)cc23)CC1 (single isomer, unassigned) [Example 8.1]
0.07 µM
